Target: Trace amine-associated receptor 1 (Homo sapiens)
Assay: activators of TAAR1 calcium mobilization – Fluo-8 calcium fluorescence, CHO RD-HGA16 cells, primary screen (AID 624467)
Settings: CHO RD-HGA16 TAAR1, Fluo-8 calcium fluorescence; at 3 µM; vehicle wells 0%, saturating PEA agonist 100%
In all, about 360,000 compounds went through this assay and about 3,600 (1%) were called active.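 Rule for the calls: active = activation above the mean activation of all test compounds in the run plus 3 SD (cut at about 38% in these data); inactive = the rest.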 This excerpt belongs to a sample that is enriched for actives.
Classes used: active, inactive

[[record]]
compound = "COc1cccc(CNC(=O)c2nnn(CC(=O)Nc3cc(Cl)ccc3C)c2N)c1"
label = "inactive"

[[record]]
compound = "S=C(NCCCc1cnc[nH]1)NCCCN(Cc1ccc(Cl)c(Cl)c1)c1ccc(Br)cn1"
label = "active"

[[record]]
compound = "O=S(=O)(Nc1cc(S(=O)(=O)N2CCOCC2)ccc1N1CCCC1)c1cccs1"
label = "inactive"

[[record]]
compound = "Nc1nc2c(ncn2[C@@H]2O[C@H](C(=O)N[C@@H](Cc3ccccc3)C(=O)NCc3ccccc3)[C@@H](O)[C@H]2O)c(=O)[nH]1"
label = "inactive"

[[record]]
compound = "CCN(C(=O)c1ccc(Br)cc1)c1ccccc1"
label = "inactive"

[[record]]
compound = "CCCc1nc2c(c(=O)c3ccccc3n2C)c(=O)n1C1CCCCCC1"
label = "active"

[[record]]
compound = "Cc1ccc(NC(=O)Cn2sc3ccccc3c2=O)cc1"
label = "active"

[[record]]
compound = "CCCc1c(-c2ccccc2F)ncn1Cc1ccccc1OC"
label = "inactive"

[[record]]
compound = "CCCCc1c(-c2ccc(Br)cc2)ncn1CCc1ccccc1OC"
label = "active"

[[record]]
compound = "CCOc1ccc(Nc2nc(Cc3nnc(SCC(=O)NC4CCCC4)n3C)cs2)cc1"
label = "inactive"

[[record]]
compound = "Cc1ccc(NC(=O)N2c3ccccc3SC2c2ccco2)c(C)c1 (stereo not given)"
label = "inactive"

[[record]]
compound = "c1ccc(Nc2nc(N3CCOCC3)c3ccccc3n2)cc1"
label = "active"

[[record]]
compound = "COc1cccc(CNC(=O)[C@H]2CCCN2C(=O)[C@H]2CCCN2C(=O)c2cc(F)cc(F)c2)c1"
label = "inactive"

[[record]]
compound = "CC1CCc2sc3nc(N4CCN(CCO)CC4)n4ncnc4c3c2C1 (stereo not given)"
label = "inactive"

[[record]]
compound = "COc1ccc(-c2ccccc2C2Cc3nnccc3CN2C(=O)Nc2ccccc2)cc1 (stereo not given)"
label = "inactive"

[[record]]
compound = "COc1ccccc1Cc1c(-c2ccc(Cl)cc2)nc2c3ccccc3ccn12"
label = "inactive"

[[record]]
compound = "NCCCNC(=S)NCCCN(Cc1ccc(Cl)cc1)c1ccc(Br)cn1"
label = "inactive"

[[record]]
compound = "O=C1CCN(C(=O)Nc2ccccc2)N1"
label = "inactive"

[[record]]
compound = "COc1ccccc1CCn1cnc(-c2ccccc2)c1C(C)C"
label = "inactive"

[[record]]
compound = "Cc1ccc(NC(=S)Nc2ncccc2C)c(C)c1"
label = "inactive"

[[record]]
compound = "COc1ccc2nc3n(c(=O)c2c1)-c1ccc(Cl)cc1C(=O)NC3Cc1ccccc1 (stereo not given)"
label = "inactive"

[[record]]
compound = "COCCCn1c(SCC(=O)NC2CCCC2)nnc1-c1ccccc1"
label = "inactive"

[[record]]
compound = "CN(C(=O)COC(=O)c1ccc(Br)o1)c1c(N)n(Cc2ccccc2)c(=O)[nH]c1=O"
label = "inactive"

[[record]]
compound = "CCOC(=O)C1CCN(S(=O)(=O)c2ccc3c(c2)N(C(C)=O)CCO3)CC1"
label = "inactive"

[[record]]
compound = "CC(C)[C@H](NC(=O)N1CCn2c1nc1ccccc12)C(=O)NC1CC1"
label = "inactive"

[[record]]
compound = "COC(=O)[C@H](CC(C)C)NS(=O)(=O)c1c(F)cccc1F"
label = "inactive"

[[record]]
compound = "CCO[C@H]1OC(C(=O)N2CCOCC2)=C[C@@H](c2ccc3c(c2)OCO3)[C@@H]1CCCO"
label = "inactive"

[[record]]
compound = "Nc1ncnc2c1ncn2[C@@H]1O[C@H](C(=O)N[C@@H](CCc2ccccc2)C(=O)N2CCCN(Cc3cccs3)CC2)[C@@H](O)[C@H]1O"
label = "inactive"

[[record]]
compound = "Cc1ccc(N)cc1CN1CCN(c2ncc(Cc3ccccc3)cn2)CC1"
label = "inactive"

[[record]]
compound = "Nc1nc2c(ncn2[C@@H]2O[C@H](C(=O)N[C@H](Cc3ccccc3)C(=O)NCC3CCCCC3)[C@@H](O)[C@H]2O)c(=O)[nH]1"
label = "inactive"

[[record]]
compound = "C[C@H](O)[C@@H]1C(=O)N2CCc3c([nH]c4ccccc34)[C@@H]2C[C@@H]1N(C)C(=O)Nc1ccc(F)cc1"
label = "inactive"

[[record]]
compound = "CCCN1C(=O)C(Cc2nc3ccccc3c(=O)n2-c2ccccc2)c2cc(C)ccc21 (stereo not given)"
label = "inactive"

[[record]]
compound = "Cc1ccc(N2C(=O)CC(NCc3ccc4c(c3)OCO4)C2=O)cc1Cl (stereo not given)"
label = "inactive"

[[record]]
compound = "Cc1cccc(N2CCN(C(=O)c3cnn4c(C(F)F)cc(-c5ccccc5)nc34)CC2)c1C"
label = "inactive"

[[record]]
compound = "COc1ccc(C(CC(=O)N2CCN(c3ccccc3)CC2)c2c(O)cc(OC)cc2OC)cc1 (stereo not given)"
label = "inactive"


----------
activation: recorded values
Molecular target: Trace amine-associated receptor 1 (Homo sapiens) (UniProt Q96RJ0)
Sequence (Q96RJ0 whole entry, looked up): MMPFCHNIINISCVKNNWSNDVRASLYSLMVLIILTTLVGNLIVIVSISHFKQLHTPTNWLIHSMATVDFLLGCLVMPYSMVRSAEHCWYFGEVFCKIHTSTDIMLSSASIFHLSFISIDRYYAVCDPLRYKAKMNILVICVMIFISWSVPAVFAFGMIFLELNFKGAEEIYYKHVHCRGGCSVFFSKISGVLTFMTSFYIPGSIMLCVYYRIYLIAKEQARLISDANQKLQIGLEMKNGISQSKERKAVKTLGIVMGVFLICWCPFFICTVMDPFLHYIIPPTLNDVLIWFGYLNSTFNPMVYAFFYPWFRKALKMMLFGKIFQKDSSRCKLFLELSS
Assay: activators of TAAR1 calcium mobilization – Fluo-8 calcium fluorescence, CHO RD-HGA16 cells, primary screen (AID 624467)
Conditions: CHO RD-HGA16 TAAR1, Fluo-8 calcium fluorescence; at 3 µM; hits give high values; vehicle wells 0%, saturating PEA agonist 100%
Hit rate of the full screen: of about 360,000 compounds, about 3,600 (1%) were called active. Shown is part of a subset that was picked to be rich in actives.
Observation Type: activation (%)

[[record]]
compound = "O=C(O)/C=C/c1ccc(S(=O)(=O)N2CCCCCC2)cc1"
observation_type = "activation"
experimental_value = 4.85

[[record]]
compound = "CS(=O)(=O)N(CC(=O)N1CCc2ccccc2C1)c1ccc(Br)cc1"
observation_type = "activation"
experimental_value = 2.37

[[record]]
compound = "CC(C)c1c(C(=O)N/N=C/c2ccccc2C(=O)O)nnn1-c1nonc1N"
observation_type = "activation"
experimental_value = 2.66

[[record]]
compound = "CCc1ccc(/C=N/NC(=O)c2nnn(-c3nonc3N)c2CN2CCc3ccccc32)cc1"
observation_type = "activation"
experimental_value = 4.17

[[record]]
compound = "Cc1cccc(N(CC(=O)N2CCOCC2)S(C)(=O)=O)c1"
observation_type = "activation"
experimental_value = 0.3

[[record]]
compound = "C=CC1=CCN(S(=O)(=O)C(C)(C)C)[C@@H]1CCO"
observation_type = "activation"
experimental_value = 3.56

[[record]]
compound = "O=C(CN(c1cccc(Cl)c1)S(=O)(=O)c1ccccc1)NN=C1CCCC1"
observation_type = "activation"
experimental_value = -0.99

[[record]]
compound = "O=C1CCCC(O)=C1C=NCCc1ccccc1"
observation_type = "activation"
experimental_value = 60.6

[[record]]
compound = "Cc1cc(O)ccc1-c1cc(C(=O)NCc2cc(C(F)(F)F)cc(C(F)(F)F)c2)[nH]n1"
observation_type = "activation"
experimental_value = 39.9

[[record]]
compound = "O=C(O)C1C2C=CC(O2)C1C(=O)Nc1ccccn1 (stereo not drawn)"
observation_type = "activation"
experimental_value = 2.36

[[record]]
compound = "CCN(CC)CCCC(C)n1c2nc(=O)[nH]c(=O)c-2nc2cc(Cl)ccc21 (stereo not drawn)"
observation_type = "activation"
experimental_value = 244

[[record]]
compound = "CCCOc1ccc(F)cc1-c1cc(C(=O)NCc2ccc(F)cc2)[nH]n1"
observation_type = "activation"
experimental_value = 3.61

[[record]]
compound = "O=C(NCCc1ccccc1)C1CC1"
observation_type = "activation"
experimental_value = 20.1

[[record]]
compound = "COc1cc(NC(=O)CN2C(=O)NC(C)(c3ccc(OC(F)F)cc3)C2=O)cc(OC)c1OC (stereo not drawn)"
observation_type = "activation"
experimental_value = 5.76

[[record]]
compound = "Cc1ccc(C2(C)NC(=O)N(CC(=O)N3CC(=O)Nc4ccccc43)C2=O)cc1 (stereo not drawn)"
observation_type = "activation"
experimental_value = 1.06

[[record]]
compound = "COCc1nc2ccccc2n1Cc1ccccc1Br"
observation_type = "activation"
experimental_value = 12.1

[[record]]
compound = "O=C(O)C1C2C=CC(O2)C1C(=O)NCCc1cccc(Cl)c1 (stereo not drawn)"
observation_type = "activation"
experimental_value = 76.8

[[record]]
compound = "C=CCNC(=O)/C=C/c1ccc(C(C)C)cc1"
observation_type = "activation"
experimental_value = -2.85

